# System: 598228-144-R-J1-PDC complex spheroid viability;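 further: spheroids exposed to the agents for one week before reading; percent of vehicle DMSO control viability so 100% = untreated growth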
# test description: Anticancer human tumor 598228-144-R-J1-PDC patient-derived serous endometrial adenocarcinoma cell line growth inhibition [GQUAD]
# conditions used: second compound 0.0316 µM; first compound 0.316 µM; stronger effect = lower value
# Description: DNA G-quadruplex Stabilizer Agents in Combinations in Complex Spheroids A high-throughput screen of multi-cell type tumor spheroids was designed to identify active combinations of DNA G-quadruplex stabilizer agents and targeted small molecules. […] Compounds. […] If the clinical Cmax for an agent had not been determined, the highest concentration tested was 10 microM. […]
Exercise: for every item that follows, state its recorded viability, T/C.
Give bare numbers, in %.

1) C=CC(=O)N1CCN(c2nc(=O)n(-c3c(C)ccnc3C(C)C)c3nc(-c4c(O)cccc4F)c(F)cc23)C(C)C1 (stereo not drawn) + Cc1[nH]c2ccc(F)cc2c1-c1nc2c3cccnc3c3ncccc3c2[nH]1 = 105
2) CCc1c2c(nc3ccc(O)cc13)-c1cc3c(c(=O)n1C2)COC(=O)[C@]3(O)CC + CN(C)c1ccc(Nc2c3ccc(NC(=O)CCN4CCCC4)cc3nc3cc(NC(=O)CCN4CCCC4)ccc23)cc1 = 18.8

Then this compound:
Look up viability, T/C: Cc1cccc(N(C)C(=O)C2C(O)CCN2c2nc(C)cc(C(F)(F)F)c2C#N)c1 (stereo not drawn) + Cc1[nH]c2ccc(F)cc2c1-c1nc2c3cccnc3c3ncccc3c2[nH]1
112
